tested on: SF-539 CNS; test: NCI-60 one-dose screen, 48 h (100 = growth as untreated, 0 = no growth, -100 = all killed); details: 10 µM unless noted
About 83,000 compounds went through this panel and 20% of them were active in at least one assay; those are over-represented in the sample as a whole. Activity calls are given as the source filed them. How the source made its calls: active means growth percent below 10; inactive means the rest.
test readout: growth

Solved entries (count: 6):
| mol | system tested | growth |
| --- | --- | --- |
| COc1cccc(/C=C2\Oc3cc(OCCCN4CCCC4)ccc3C2=O)c1 | SF-539 CNS | 76.1% (inactive) |
| CCN(CC)CCOc1ccc(/C(=C(/C)c2ccccc2)c2ccc(OC(C)=O)cc2)cc1 | SF-539 CNS | 101% (inactive) |
| CN(C[C@H]1Cc2c(cccc2N2CCN(Cc3ccccn3)CC2)CN1)[C@H]1CCCc2cccnc21 | SF-539 CNS | 83% (inactive) |
| COc1cccc(-c2nc3sccn3c2-c2ccnc(NCCCNS(=O)(=O)c3ccc(C(F)(F)F)cc3)c2)c1 | SF-539 CNS | 55.1% (inactive) |
| CCCN=C1NC(=O)/C(=C/c2nc(-c3ccc(OC)cc3)n3ccccc23)S1 | SF-539 CNS | 95.4% (inactive) |
| COc1ccc(-c2cc(-c3ccccc3)nc(SCCCC(=O)NO)n2)cc1OC | SF-539 CNS | 14.8% (inactive) |

**Q:** Respond only with growth recorded for Nc1nc(-c2ccccc2)c(CCCOc2ccc(NC(=O)CBr)cc2)c(=O)[nH]1
**A:** 93.1% (inactive)

**Q:** Respond only with growth recorded for Cc1[nH]c2ccc(F)cc2c1CCNC(=O)C1CCN(C(=O)c2ccccc2)CC1
**A:** 86.4% [25 µM] (inactive)

**Q:** Respond only with growth recorded for CC(C)(C)n1cc(-c2ccnc(NCCCNS(=O)(=O)c3cccc(F)c3)c2)c(-c2cccc(O)c2)n1
**A:** 39.3% (inactive)

====

test system: OVCAR-4 ovarian; test: NCI-60 one-dose screen, 48 h (100 = growth as untreated, 0 = no growth, -100 = all killed); details: 10 µM unless noted
This is part of a sample that, as a whole, favours compounds with a hit. Of some 83,000 tested, about 20% had one in any assay. Calls of active or inactive are those of the source. How the source made its calls: active means growth percent below 10; inactive means the rest.
growth listing for selected compounds.

Solved entries (count: 5):
| compound | growth |
| --- | --- |
| S=C(S)NCCc1c[nH]c2ccccc12 | 111% (inactive) |
| O=C(Nc1cccc(-n2cc(-c3ccncc3)c(-c3ccc(Cl)c(O)c3)n2)c1)Nc1ccc(Cl)c(C(F)(F)F)c1 | -3.42% (active) |
| COc1ccc2[nH]c(=O)c(/C=N/Nc3nc(-c4ccccc4)cs3)c(O)c2c1 | 47.9% (inactive) |
| CN(C)CC(C(=O)c1ccccc1)c1ccccc1 (stereo not drawn) | 43.1% (inactive) |
| CC(C)(C)n1cc(-c2ccnc(NCCCNS(=O)(=O)c3ccc(C(F)(F)F)cc3)c2)c(-c2cccc(O)c2)n1 | 41.7% (inactive) |

**Q:** Respond only with growth recorded for CN(C)c1oc(C2OC2c2ccccc2)nc1C#N (stereo not drawn)
**A:** 109% (inactive)

**Q:** Respond only with growth recorded for CCCCCc1cc[n+](CC(=O)c2ccc([N+](=O)[O-])cc2)cc1
**A:** 26.3% (inactive)

====

system: NCI-H23 lung; assay: NCI-60 one-dose screen, 48 h; conditions: 10 µM unless noted
This is part of a sample that, as a whole, favours compounds with a hit. Of some 83,000 tested, about 20% had one in any assay. Active and inactive are the calls of the source. The calls were made as follows: active = growth percent below 10; inactive = the rest.
Respond with a class label; see yes (1) = active, no (0) = inactive

Answered examples (3):
| compound | answer label |
| --- | --- |
| O=c1[nH]c(Nc2ccc(S(=O)(=O)O)cc2)nc2nc(Nc3ccc(NC(=S)Nc4ccccc4)cc3)nc(-c3ccc(O)cc3O)c12 | no (0) |
| CCN(CC)CCCC(C)Nc1c2ccc(Cl)cc2nc2cc(OC)c(OC)cc12 (centres undefined) | no (0) |
| CN1CCN(Cc2ccc(NC(=O)c3nc4ccc5[nH]ncc5c4c4c3CCC4)cc2C(F)(F)F)CC1 | no (0) |

**Q:** Entry O=C1C2(c3ccccc3)C(c3ccccc3)=C(c3ccccc3)C1(c1ccccc1)C1CC=CC12 (centres undefined) : call = ?
**A:** no (0)

**Q:** Entry O=C1C(Cl)=C(Nc2ccccn2)C(=O)c2ccccc21 : call = ?
**A:** no (0)

**Q:** Entry COc1ccc2[nH]c(C(=O)OCc3ccc4c(Cl)cc(Cl)c(O)c4n3)cc2c1 : call = ?
**A:** yes (1)

**Q:** Entry CCOC(=O)/C(C#N)=C1/C(=O)Nc2ccccc21 : call = ?
**A:** no (0)

**Q:** Entry C1=Cc2ccccc2N(c2nnc(-c3ccccc3)o2)c2ccccc21 : call = ?
**A:** no (0)

**Q:** Entry COc1cc(-c2nn(-c3cccc(NC(=O)Nc4cc(C(F)(F)F)cc(C(F)(F)F)c4)c3)cc2-c2ccncc2)ccc1Cl : call = ?
**A:** yes (1)

====

test system: OVCAR-8 ovarian; assay: NCI-60 one-dose screen, 48 h (100 = growth as untreated, 0 = no growth, -100 = all killed); conditions: 10 µM unless noted
About 83,000 compounds went through this panel and 20% of them were active in at least one assay; those are over-represented in the sample as a whole.
Quick rule for you: growth at 80% or higher means T, lower means F.

Answered examples (5):
| molecule | answer label |
| --- | --- |
| CC(=O)Nc1nc(N)nc(NC(C)=O)c1N=O | T |
| S=c1[nH]nc(-c2cc3ccc2CCc2ccc(cc2)CC3)n1C1CC1 | T |
| CCOC(=O)CN1/C(=N/c2sc3c(c2C(=O)OCC)CCN(C(=O)OCC)C3)SC(=O)/C1=C\C(=O)OC | F |
| N=C(N)c1ccc(-c2ccc(-c3cncc4ccccc34)s2)cc1F | F |
| COc1ccc(-c2nc(/C=N/Nc3cc(C)nc4ccc(Cl)cc34)c(C)o2)cc1 | F |

**Q:** Given O=[N+]([O-])c1cccc(-c2nc3sccn3c2-c2ccnc(NCCCNS(=O)(=O)c3ccc(C(F)(F)F)cc3)n2)c1 , state whether its growth is at least 80%.
**A:** F

**Q:** Given CCOC(=O)CC(=O)OC , state whether its growth is at least 80%.
**A:** T

====

system: HOP-92 NSCLC; assay: NCI-60 one-dose screen, 48 h; conditions: 10 µM unless noted
About 83,000 compounds went through this panel and 20% of them were active in at least one assay; those are over-represented in the sample as a whole. Calls of active or inactive are those of the source. Rule for the calls: active = growth percent below 10; inactive = the rest.
Respond with a class label; see yes (1) = active, no (0) = inactive

Answered examples (3):
| molecule | answer label |
| --- | --- |
| N#Cc1ccc(N2Cc3ccccc3OC3=C2C(=O)c2c(O)ccc(O)c2C3=O)cc1 | yes (1) |
| COc1ccc(-c2nc(N3CCCC3=O)sc2Br)cc1OC | no (0) |
| Cc1ccc(Nc2nnc(-c3ccc(Cl)cc3)o2)c(C)c1 | no (0) |

**Q:** Entry COc1ccc(-c2nc3sc(-c4cc(OC)c(OC)c(OC)c4)nn3c2/C=C2/C(=O)Nc3ccc(F)cc32)cc1 : call = ?
**A:** yes (1)

**Q:** Entry COc1cc2c(cc1OCCCCCn1c3ccccc3c3ccccc31)N=C[C@@H]1CCCN1C2=O : call = ?
**A:** yes (1)

====

system: 786-0 renal; assay: NCI-60 one-dose screen, 48 h; conditions: 10 µM unless noted
About 83,000 compounds went through this panel and 20% of them were active in at least one assay; those are over-represented in the sample as a whole. Calls of active or inactive are those of the source. The calls were made as follows: active = growth percent below 10; inactive = the rest.
Respond with a class label; see yes (1) = active, no (0) = inactive

Answered examples (8):
| compound | answer label |
| --- | --- |
| COc1ccc(/C=C/c2c(C(C)=O)c(C)nc3ccccc23)cc1 | no (0) |
| Cc1ccc(S(=O)(=O)n2cc(C(=O)C(=O)N3CCOCC3)c3ccccc32)cc1 | no (0) |
| C=C(C)[C@@H]1C[C@@H]2Cc3cc(F)ccc3N1O2 | no (0) |
| COc1ccc(/C=N\NC(=O)CN2CCN(c3cc4c(cc3F)c(=O)c(C(=O)N/N=C/c3ccc(OC)c(OC)c3)cn4C3CC3)CC2)cc1OC | no (0) |
| O=C1/C(=C/c2ccccc2)CN(C(=O)CCN2CCC(=NO)CC2)C/C1=C\c1ccccc1 | yes (1) |
| COc1ccc(C2NN=C3c4ccccc4CCC32)cc1 (centres undefined) | no (0) |
| COC(=O)C1CCCN1C(=O)[C@@H]1CCCN1C(=O)[C@H](Cc1c[nH]c2ccccc12)NC(=S)Nc1cc(C(F)(F)F)cc(C(F)(F)F)c1 (some centres undefined) | no (0) |
| Cc1ccc(-c2cc3nc(C(Cl)Cl)nc(-c4cccnc4)n3n2)cc1 | no (0) |

Next up:
**Q:** Entry COP(=O)(OC)/C(=N\NS(=O)(=O)c1ccc(C)cc1)c1ccccc1 : call = ?
**A:** no (0)
